Data origin: patent US20110318339A1

Molecular target: T1, recombinant human DLL4 (Cat# 1506-D4/CF, R&D Systems) (human, UniProt Q9NR61 27-529)
T1 construct: Bought protein; also called hDLL4; rHuman DLL4
Experiment: ELISA, DLL4 coated, Fab 3.125 nM
Record Fulfilled whenever ELISA absorbance at 450 nm is at 0.1 A450 or higher; record Not fulfilled when lower.

Hi team, for Fab VH1-46_IGHD6-6*01_IGHJ1*01 S102A/S103P/S104F/H111F & L6_IGKJ1*01 S28N/S30D/S31H S52L (Fab, V domains shown, Fab made in E. coli: VH on CH1 with His6 and Flag tags (Plasmid A), VL on kappa CL (Plasmid C); also called H: APFF & L: NDH S52L) VH: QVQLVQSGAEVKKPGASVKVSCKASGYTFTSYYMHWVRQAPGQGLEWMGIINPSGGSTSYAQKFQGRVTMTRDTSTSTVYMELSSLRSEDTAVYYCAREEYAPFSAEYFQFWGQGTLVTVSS VL: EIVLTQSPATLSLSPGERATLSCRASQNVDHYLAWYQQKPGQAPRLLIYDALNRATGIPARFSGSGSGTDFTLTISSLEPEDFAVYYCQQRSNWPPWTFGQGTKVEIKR , is the recorded ELISA absorbance at 450 nm at or above 0.1 A450?
Not fulfilled

Threshold query (ELISA absorbance at 450 nm >= 0.1 A450) on Fab VH1-46_IGHD6-6*01_IGHJ1*01 S102A/S103P/S104F/H111F & L6_IGKJ1*01 S28N/S30D/S31H A55S (Fab, V domains shown, Fab made in E. coli: VH on CH1 with His6 and Flag tags (Plasmid A), VL on kappa CL (Plasmid C); also called H: APFF & L: NDH A55S) VH: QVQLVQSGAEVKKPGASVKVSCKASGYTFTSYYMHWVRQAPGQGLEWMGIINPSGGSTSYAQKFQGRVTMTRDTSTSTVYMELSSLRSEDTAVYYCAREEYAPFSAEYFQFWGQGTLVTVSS VL: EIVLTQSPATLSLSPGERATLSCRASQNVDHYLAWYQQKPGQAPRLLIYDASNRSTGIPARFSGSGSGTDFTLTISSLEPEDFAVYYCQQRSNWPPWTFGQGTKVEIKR
Fulfilled

Reported ELISA absorbance at 450 nm at or above 0.1 A450? Fab VH1-46_IGHD6-6*01_IGHJ1*01 S102A/S103P/S104F/H111F & L6_IGKJ1*01 S28N/S30D/S31H N53H (Fab, V domains shown, Fab made in E. coli: VH on CH1 with His6 and Flag tags (Plasmid A), VL on kappa CL (Plasmid C); also called H: APFF & L: NDH N53H) VH: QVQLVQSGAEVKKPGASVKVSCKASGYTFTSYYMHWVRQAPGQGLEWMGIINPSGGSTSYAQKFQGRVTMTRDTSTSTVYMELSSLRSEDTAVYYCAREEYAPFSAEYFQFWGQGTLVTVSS VL: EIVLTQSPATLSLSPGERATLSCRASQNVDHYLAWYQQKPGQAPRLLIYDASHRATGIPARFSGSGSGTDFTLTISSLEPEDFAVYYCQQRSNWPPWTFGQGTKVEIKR
Not fulfilled

Is reported ELISA absorbance at 450 nm greater than or equal to 0.1 A450 here: Fab VH1-46_IGHD6-6*01_IGHJ1*01 S102A/S103P/S104F/H111F & L6_IGKJ1*01 S28N/S30D/S31H A55G (Fab, V domains shown, Fab made in E. coli: VH on CH1 with His6 and Flag tags (Plasmid A), VL on kappa CL (Plasmid C); also called H: APFF & L: NDH A55G) VH: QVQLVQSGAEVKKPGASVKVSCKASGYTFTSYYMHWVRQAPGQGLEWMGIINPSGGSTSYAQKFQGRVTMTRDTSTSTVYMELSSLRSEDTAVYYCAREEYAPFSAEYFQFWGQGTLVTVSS VL: EIVLTQSPATLSLSPGERATLSCRASQNVDHYLAWYQQKPGQAPRLLIYDASNRGTGIPARFSGSGSGTDFTLTISSLEPEDFAVYYCQQRSNWPPWTFGQGTKVEIKR
Not fulfilled

Has Fab VH1-46_IGHD6-6*01_IGHJ1*01 S102A/S103P/S104F/H111F & L6_IGKJ1*01 S28N/S30D/S31H (Fab, V domains shown, Fab made in E. coli: VH on CH1 with His6 and Flag tags (Plasmid A), VL on kappa CL (Plasmid C); also called H: APFF & L: NDH) VH: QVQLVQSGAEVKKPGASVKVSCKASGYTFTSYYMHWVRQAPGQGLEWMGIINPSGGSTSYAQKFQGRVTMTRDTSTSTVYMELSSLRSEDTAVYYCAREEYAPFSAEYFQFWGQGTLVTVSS VL: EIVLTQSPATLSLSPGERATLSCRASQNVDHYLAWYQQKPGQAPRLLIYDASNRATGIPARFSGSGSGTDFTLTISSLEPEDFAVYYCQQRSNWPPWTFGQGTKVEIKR a recorded ELISA absorbance at 450 nm greater than or equal to 0.1 A450?
Not fulfilled
